System: Mammalian orthoreovirus 1
Experiment: Concentration required to inhibit reovirus-1 induced cytopathicity in Vero cells by 50%
Type: functional, organism-based
Details: Mammalian orthoreovirus 1, Vero
test-readout: IC50

Lookup: Lab request: please report IC50 under test system Mammalian orthoreovirus 1 for "CCCCCCCCCCCCSCCCCCCCCCCCCC(=O)NCCCCCCCCCCC(=O)NCCC(=O)[O-].[Na+]"
Found: > 200 µg/mL

Lookup: Lab request: please report IC50 under test system Mammalian orthoreovirus 1 for "CCCCCCCCCCCCSCCCCCCCCCCCCCCCCCCCCCCC(=O)NCCCCCCCCCCC(=O)[O-].[Na+]"
Found: > 100 µg/mL

Lookup: Lab request: please report IC50 under test system Mammalian orthoreovirus 1 for "CCCCCCCCCCCCSCCCCCCCCCCC(=O)N(CC)CCCCCCCCCCC(=O)NCCC(=O)[O-].[Na+]"
Found: > 200 µg/mL

Lookup: Lab request: please report IC50 under test system Mammalian orthoreovirus 1 for "CCCCCCCCCCCCSCCCCCCCCCCCCC(=O)NCCCCCCCCCCC(=O)[O-].[Na+]"
Found: > 200 µg/mL

Lookup: Lab request: please report IC50 under test system Mammalian orthoreovirus 1 for "CCCCCCCCCCCCSCCCCCCCCCCCCCCCCCCCCCCCCCCCCCCCCC(=O)N(CC)CCCCCCCCCCC(=O)[O-].[Na+]"
Found: > 200 µg/mL

meta.source: ChEMBL document CHEMBL1130289
